I'd appreciate it if you could supply normalized growth values for the items below.
Experiment: chemical genetic growth profiling, strain panel (AID 1159580);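 note: tested at 20 µM; growth read once vehicle control cultures reached saturation at 30 °C; 1 = growth at the plate median or of vehicle wells; lower values mean less growth of the strain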
Conditions: S. cerevisiae deletion strains, growth OD, locus YDL108W, strain KIN28, active compounds read low
The campaign covered roughly 5,500 compounds. About 2,000 (36%) were called active. Roughly 18% stayed inconclusive and do not appear here. This is one part of the list.
Numbers only.

Given Smiles	Observed
O=C(NC(=S)Nc1cccc(C(F)(F)F)c1)c1ccc2nonc2c1	0.957

Batch request: normalized growth per item, same order as input.
1. CC(C)c1ccc(NC(=S)NC(=O)c2ccccc2)cc1
2. FC(F)(F)c1cccc(NNC(=S)Nc2ccccc2)c1
3. CCCc1c(C(=O)NC2Cc3ccccc3C2)cnn1-c1ccccc1

Outgoing:
1: 0.971; 2: 1.01; 3: 0.997

Incoming: Entry under review: "CCOC(=O)/C(=N/Nc1c(Cl)cccc1Cl)c1csc(N)n1" . Reported normalized growth?
Outgoing: 0.97

###

Assay: chemical genetic growth profiling, strain panel (AID 1159580);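 note: tested at 20 µM; growth read once vehicle control cultures reached saturation at 30 °C; 1 = growth at the plate median or of vehicle wells; lower values mean less growth of the strain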
Settings: S. cerevisiae deletion strains, growth OD, locus YNL307C, strain MCK1, active compounds read low
About 2,000 (36%) of roughly 5,500 compounds were called active. Not shown: some 18% with an inconclusive outcome. This is one part of the list.
Recorded Metric: normalized growth
One number for each entry.

These solved cases illustrate the format of a correct answer.
Compound	normalized growth
Nc1ccc(C(=O)NCC(=O)O)cc1	1.02
O=C(O)c1cccnc1Nc1cccc(C(F)(F)F)c1	0.937
NCC(O)c1ccc(O)cc1 (stereo not given)	0.985
C[C@H]1[C@H]2CCC3C4CC=C5C[C@@H](N(C)C)CC[C@]5(C)C4CC[C@@]32CN1C (stereo not given in full)	0.988
C1CCN2C[C@@H]3C[C@H](CN4CCCC[C@@H]34)[C@H]2C1	1.01

Batch request: normalized growth per item, same order as input.
1. COC(=O)Oc1ccccc1C(=O)O
2. COc1cc(OC)c2c(=O)c(-c3ccccc3)c(C)oc2c1OC
3. C1CCN2CC3CC(CN4CCCCC34)C2C1 (stereo not given)

Outgoing:
1: 1.02; 2: 0.978; 3: 0.294

Batch request: normalized growth per item, same order as input.
1. CNc1ccccc1C(=O)O
2. CCN(CC)CCNC(=O)c1cc(S(C)(=O)=O)ccc1OC

Outgoing:
0.993
1.02

###

Assay: chemical genetic growth profiling, strain panel (AID 1159580);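 note: tested at 20 µM; growth read once vehicle control cultures reached saturation at 30 °C; 1 = growth at the plate median or of vehicle wells; lower values mean less growth of the strain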
Details: S. cerevisiae deletion strains, growth OD, locus YJL164C, strain tpk1, active compounds read low
The campaign covered roughly 5,500 compounds. About 2,000 (36%) were called active. Roughly 18% stayed inconclusive and do not appear here. Some of the results follow.
I'd appreciate it if you could supply normalized growth values for the items below.
Numbers only.

Batch request: normalized growth per item, same order as input.
1. CN[C@H](CC(=O)O)C(=O)O
2. CN(C)CCOc1ccc(/C(=C(/CCCl)c2ccccc2)c2ccccc2)cc1
3. CS(=O)(=O)CCCCN=C=S
4. COc1cc(C(=O)NCc2ccc(OCCN(C)C)cc2)cc(OC)c1OC
5. CN1C(CC(=O)c2ccccc2)CCCC1CC(O)c1ccccc1 (stereo unspecified)
6. CCOP(=S)(OCC)SCn1c(=O)oc2cc(Cl)ccc21

Outgoing:
[0.998, 0.0629, 0.607, 1, 0.996, 0.943]

All values here come from PubChem BioAssay AID1159580.
